tested-target: Ybr033w (UniProt P38073)
Sequence: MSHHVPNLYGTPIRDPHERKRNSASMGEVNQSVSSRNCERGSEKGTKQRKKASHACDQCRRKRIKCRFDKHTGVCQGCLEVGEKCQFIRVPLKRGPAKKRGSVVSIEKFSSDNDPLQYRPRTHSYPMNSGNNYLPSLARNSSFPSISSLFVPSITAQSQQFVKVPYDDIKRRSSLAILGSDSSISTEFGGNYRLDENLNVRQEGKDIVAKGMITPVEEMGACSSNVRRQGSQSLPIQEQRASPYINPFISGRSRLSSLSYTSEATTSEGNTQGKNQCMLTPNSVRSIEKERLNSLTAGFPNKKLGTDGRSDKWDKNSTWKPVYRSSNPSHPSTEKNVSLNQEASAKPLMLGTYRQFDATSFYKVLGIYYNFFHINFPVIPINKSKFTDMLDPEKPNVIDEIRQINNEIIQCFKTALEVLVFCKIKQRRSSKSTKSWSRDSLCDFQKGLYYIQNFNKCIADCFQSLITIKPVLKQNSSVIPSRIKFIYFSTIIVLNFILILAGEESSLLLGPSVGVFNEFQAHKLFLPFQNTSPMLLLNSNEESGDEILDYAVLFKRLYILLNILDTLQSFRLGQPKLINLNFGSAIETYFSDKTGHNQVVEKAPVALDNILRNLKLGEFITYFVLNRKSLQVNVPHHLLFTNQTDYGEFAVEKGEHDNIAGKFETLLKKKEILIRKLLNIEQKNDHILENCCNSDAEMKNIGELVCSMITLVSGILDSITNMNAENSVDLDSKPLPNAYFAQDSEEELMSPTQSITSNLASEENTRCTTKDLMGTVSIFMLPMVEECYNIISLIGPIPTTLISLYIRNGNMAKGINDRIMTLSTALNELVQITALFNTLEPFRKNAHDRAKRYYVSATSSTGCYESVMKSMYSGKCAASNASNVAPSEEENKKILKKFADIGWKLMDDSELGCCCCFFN
protocol-details: PBM E-score (8-mer binding enrichment) (E-score (-0.5 to 0.5)); higher = stronger / more preferred TF binding
test-conditions: protein concentration: 200 nM; construct: GST-full length
In all, about 33,000 sequences were measured (“E-score (-0.5 to 0.5)”: median about -0.012, highest 2% from about 0.29 on). The list comes from a sample in which the highest values are over-represented; it also holds close analogues and randomly drawn sequences.
Overview of recorded PBM E-score for various sequences
Provide a numeric answer; units are not to be included.

Look over these answered cases.
AGATTCTA : 0.106
TAAAATGA : 0.217
GGTGGCCA : -0.292

[Q] Tell me the measured PBM E-score of `GATATTAC` , please.
[A] 0.31

[Q] Form field: reported PBM E-score of `CATATTAC`
[A] 0.17

[Q] Need PBM E-score of `ACATAGCG` , thanks.
[A] 0.0674

[Q] Can you look up the measured PBM E-score of `AATATGAG` for me?
[A] 0.245
